Target: human liver microsomal 2,3-oxidosqualene-lanosterol cyclase (OSC) (Homo sapiens, UniProt P48449)
Construct: Liver microsomes from a healthy volunteer were prepared in sodium phosphate buffer (pH 7.4); from tissue; host or cells: liver microsomes from a healthy human volunteer
Test details: Inhibition of human liver microsomal 2,3-oxidosqualene-lanosterol cyclase (OSC)
Assay type: biochemical
Condition info: 100 nM test substance; 1 hour at 37° C.; against controls
Procedure: Inhibition of human liver microsomal 2,3-oxidosqualene-lanosterol cyclase (OSC) Liver microsomes from a healthy volunteer were prepared in sodium phosphate buffer (pH 7.4). The OSC activity was measured in the same buffer which also contained 1 mM EDTA and 1 mM dithiothreitol. […] The test was carried out on the one hand with a constant test substance concentration of 100 nM and the percentage OSC inhibition against controls was calculated. […]
Binary call on inhibition at 0.1 µM: MET from 80% upward, NOT MET beneath that.

| Compound | Category |
| --- | --- |
| C=CCN(C)CCCCCCOc1ccc(-c2noc3cc(Br)ccc23)cc1 [Example 14] | NOT MET |

Data request: Identify whether the reported inhibition at 0.1 µM of the following compound is 80% or greater: C=CCN(C)CCCCCCOc1ccc2c(-c3ccc(Br)cc3)nccc2c1 [Example 23]
Data returned: MET

Data request: Another compound: C=CCN(C)CCCCCCOc1ccc2c(c1)OCC=C2c1ccc(Br)cc1 [Example 37]
Data returned: NOT MET

Data request: Another compound: C=CCN(C)C/C=C/COc1ccc2c(CCC=C(C)C)nn(C)c2c1 [Example 32h]
Data returned: NOT MET

Data request: Another compound: C=CCN(C)CCCCCCOc1ccc2c(-c3ccc(Br)cc3)nncc2c1 [Example 29]
Data returned: MET

====

Target: human liver microsomal 2,3-oxidosqualene-lanosterol cyclase (OSC) (Homo sapiens)
Construct: Liver microsomes from a healthy volunteer were prepared in sodium phosphate buffer (pH 7.4); from tissue; host or cells: liver microsomes from a healthy human volunteer
Test details: Inhibition of human liver microsomal 2,3-oxidosqualene-lanosterol cyclase (OSC)
Assay type: biochemical
Condition info: 100 nM test substance; 1 hour at 37° C.; against controls
Below, each of the molecules is paired with its reported inhibition at 0.1 µM value.
Provide only the numeric value, understood in %.

Some molecules with recorded inhibition at 0.1 µM:
| Molecule | inhibition at 0.1 µM, % |
| --- | --- |
| C=CCN(C)CCCCCCOc1ccc2c(-c3ccc(Br)cc3)n[nH]c2c1 [Example 32k] | 62 |
| CN(CCCCCCOc1ccc2c(-c3ccc(Br)cc3)nccc2c1)C1CC1 | 98 |
| CN(C[C@@H]1C[C@H]1COc1ccc2c(-c3ccc(Br)cc3)nccc2c1)C1CC1 (racemic) | 83 |
| C=CCN(C)CCCCCCOc1ccc2c(-c3ccc(Br)cc3)ccnc2c1 | 84 |

Data request: Endpoint output: inhibition at 0.1 µM of C=CCN(C)C/C=C/COc1ccc2c(CCC=C(C)C)nsc2c1 . Value?
Data returned: 62

====

Target: human liver microsomal 2,3-oxidosqualene-lanosterol cyclase (OSC) (Homo sapiens, UniProt P48449)
Sequence (P48449 1-732): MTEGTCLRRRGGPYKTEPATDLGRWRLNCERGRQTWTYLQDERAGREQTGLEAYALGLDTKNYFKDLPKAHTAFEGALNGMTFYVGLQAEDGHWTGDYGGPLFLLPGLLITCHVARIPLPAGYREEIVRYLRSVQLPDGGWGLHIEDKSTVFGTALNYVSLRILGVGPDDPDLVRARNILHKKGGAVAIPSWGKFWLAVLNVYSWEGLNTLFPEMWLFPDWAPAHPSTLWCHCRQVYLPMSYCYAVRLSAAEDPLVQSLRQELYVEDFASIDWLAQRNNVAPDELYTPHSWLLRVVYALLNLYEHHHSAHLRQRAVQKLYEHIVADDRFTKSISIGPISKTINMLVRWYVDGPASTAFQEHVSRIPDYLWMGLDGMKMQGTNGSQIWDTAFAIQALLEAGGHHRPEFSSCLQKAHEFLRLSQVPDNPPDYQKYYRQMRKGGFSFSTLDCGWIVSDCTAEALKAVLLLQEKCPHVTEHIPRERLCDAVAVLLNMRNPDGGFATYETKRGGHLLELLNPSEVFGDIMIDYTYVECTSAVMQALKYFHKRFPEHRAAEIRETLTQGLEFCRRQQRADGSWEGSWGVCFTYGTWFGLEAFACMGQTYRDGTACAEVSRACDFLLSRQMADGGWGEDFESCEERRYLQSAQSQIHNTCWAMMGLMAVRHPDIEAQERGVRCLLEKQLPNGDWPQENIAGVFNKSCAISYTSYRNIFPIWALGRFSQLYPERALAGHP
Value type: pIC50
In simple prose, pIC50 is minus the logarithm base ten of a concentration in moles per litre.

Some molecules with recorded pIC50:
| Molecule | Value type | Val |
| --- | --- | --- |
| CN(C[C@@H]1C[C@H]1COc1ccc2c(-c3ccc(Br)cc3)nccc2c1)C1CC1 (racemic) [Example 39] | pIC50 | 8.44 |
| C=CCN(C)C/C=C/COc1ccc2c(c1)CON=C2c1ccc(Br)cc1 [Example 27] | pIC50 | 8.43 |

Data request: Endpoint output: pIC50 of C=CCN(C)C/C=C/COc1ccc2c(c1)CCN=C2c1ccc(Br)cc1 [Example 26] . Value?
Data returned: 8.68

Data request: Another molecule: C=CCN(C)CCCCCCOc1ccc2c(-c3ccc(Br)cc3)csc2c1 [Example 3]
Data returned: 8.40

Data request: Another molecule: C=CCN(C)CCCCCCOc1ccc2c(-c3ccc(Br)cc3)ncnc2c1 [Example 33]
Data returned: 7.91

====

Target: human liver microsomal 2,3-oxidosqualene-lanosterol cyclase (OSC) (Homo sapiens, UniProt P48449)
Construct: Liver microsomes from a healthy volunteer were prepared in sodium phosphate buffer (pH 7.4); from tissue; host or cells: liver microsomes from a healthy human volunteer
Test details: Inhibition of human liver microsomal 2,3-oxidosqualene-lanosterol cyclase (OSC)
Format: biochemical
Condition info: 100 nM test substance; 1 hour at 37° C.; against controls
Value type: inhibition at 0.1 µM (%)
Provide only the numeric value, understood in %.

Some molecules with recorded inhibition at 0.1 µM:
| Molecule | inhibition at 0.1 µM, % |
| --- | --- |
| C=CCN(C)CCCCCCOc1ccc2c(CCC=C(C)C)nn(C)c2c1 [Example 32e] | 75 |
| C=CCN(C)CCCCCCOc1ccc2c(-c3ccc(Br)cc3)csc2c1 | 99 |
| CSCCN(C)CCCCCCOc1ccc2c(-c3ccc(Br)cc3)nsc2c1 | 32 |

Data request: Endpoint output: inhibition at 0.1 µM of C=CCN(C)CCCCCCOc1ccc2c(-c3ccc(Br)cc3)ncnc2c1 . Value?
Data returned: 94

Data request: Another molecule: C=CCN(C)C/C=C/COc1ccc2c(c1)CON=C2c1ccc(Br)cc1
Data returned: 96

Data request: Another molecule: C=CCN(C)C/C=C/COc1cc2c(cc1F)c(-c1ccc(Br)cc1)nn2C
Data returned: 79

Data request: Another molecule: C=CCN(C)C/C=C/COc1ccc2c(c1)CCN=C2c1ccc(Br)cc1
Data returned: 95

Data request: Another molecule: CN(CCCCCCOc1ccc2c(-c3ccc(Br)cc3)nn(C)c2c1)C1CC1 [Example 32i]
Data returned: 55

Data request: Another molecule: C=CCN(C)C/C=C/COc1ccc2c(-c3ccc(Br)cc3)nsc2c1
Data returned: 92

Data request: Another molecule: C=CCN(C)CCCCCCOc1ccc2c(-c3ccc(Br)cc3)nsc2c1
Data returned: 96

Data request: Another molecule: C=CCN(C)C/C=C/COc1ccc2c(-c3ccc(Br)cc3)noc2c1
Data returned: 61

====

Below, each of the molecules is paired with its reported log10 of IC50 value.
Target protein (sequence): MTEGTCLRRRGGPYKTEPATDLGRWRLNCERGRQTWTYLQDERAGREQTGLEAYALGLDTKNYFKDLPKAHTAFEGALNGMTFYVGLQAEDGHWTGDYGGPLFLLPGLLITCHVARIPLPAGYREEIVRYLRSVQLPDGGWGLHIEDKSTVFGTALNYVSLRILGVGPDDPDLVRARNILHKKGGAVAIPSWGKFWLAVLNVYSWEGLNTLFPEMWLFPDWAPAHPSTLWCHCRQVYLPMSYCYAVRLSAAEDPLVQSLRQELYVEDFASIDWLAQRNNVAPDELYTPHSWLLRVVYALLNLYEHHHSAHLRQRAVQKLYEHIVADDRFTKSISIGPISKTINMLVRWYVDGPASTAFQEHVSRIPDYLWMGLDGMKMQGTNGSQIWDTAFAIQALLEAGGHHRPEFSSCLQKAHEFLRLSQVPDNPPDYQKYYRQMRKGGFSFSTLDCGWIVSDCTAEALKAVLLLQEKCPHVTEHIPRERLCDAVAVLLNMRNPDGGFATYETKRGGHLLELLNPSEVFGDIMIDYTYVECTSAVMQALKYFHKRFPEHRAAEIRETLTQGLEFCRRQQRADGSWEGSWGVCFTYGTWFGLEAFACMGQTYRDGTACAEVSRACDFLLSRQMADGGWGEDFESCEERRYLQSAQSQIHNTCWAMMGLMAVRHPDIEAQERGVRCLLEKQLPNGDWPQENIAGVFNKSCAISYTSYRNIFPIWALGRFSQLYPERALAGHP
Lab note - IC50 converted to log10 from values in nM.

| Record smiles | Value type | Val |
| --- | --- | --- |
| C=CCN(C)CCCCCCOc1ccc2c(-c3ccc(Br)cc3)nsc2c1 | log10 of IC50 | 0.52 |
| CN(CCCCCCOc1ccc2c(-c3ccc(Br)cc3)nccc2c1)C1CC1 | log10 of IC50 | 0.20 |
| C=CCN(C)C/C=C/COc1cc2c(cc1F)c(-c1ccc(Br)cc1)nn2C | log10 of IC50 | 1.46 |

Data request: Endpoint output: log10 of IC50 of C=CCN(C)CCCCCCOc1ccc2c(c1)OCC=C2c1ccc(Br)cc1 . Value?
Data returned: 1.38

Data request: Another molecule: C=CCN(C)C/C=C/COc1ccc2c(-c3ccc(Br)cc3)nsc2c1
Data returned: 0.22
